- TARGET_ENTITY: human APJ receptor (Homo sapiens (Human))
- Sequence (P35414 whole entry): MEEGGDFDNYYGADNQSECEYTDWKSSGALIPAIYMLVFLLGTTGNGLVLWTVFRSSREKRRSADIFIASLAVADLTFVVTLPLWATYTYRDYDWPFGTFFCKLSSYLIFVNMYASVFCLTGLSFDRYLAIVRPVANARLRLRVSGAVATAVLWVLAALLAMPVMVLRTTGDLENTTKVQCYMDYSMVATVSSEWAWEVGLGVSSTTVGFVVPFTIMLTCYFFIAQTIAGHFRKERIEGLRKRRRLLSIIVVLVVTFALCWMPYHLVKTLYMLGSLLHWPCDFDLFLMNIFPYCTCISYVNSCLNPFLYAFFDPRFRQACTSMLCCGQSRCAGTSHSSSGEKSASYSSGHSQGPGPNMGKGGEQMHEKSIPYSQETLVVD
- PROCEDURE_DETAILS: [35S]GTPγS binding assay on membranes from CHO cells stably expressing human APJ receptor
- Type: biochemical
- ASSAY_SETUP: membranes of CHO cells stably expressing human APJ receptor, read-out: Activity hAPJ SPA EC50 IP
PROPERTY_LABEL: EC50 (nM)

[
  {
    "COMPOUND": "CCC(CC)n1c(NS(=O)(=O)[C@@H](C)[C@H](OC)c2ncc(Cl)cn2)nnc1-c1cccnc1 [Example 111.0]",
    "REPORTED": 27
  },
  {
    "COMPOUND": "COc1cccc(-c2nnc(NS(=O)(=O)[C@@H](C)[C@H](OC)c3ncc(Cl)cn3)n2CCc2ccc(F)cc2)n1 [Example 74.0]",
    "REPORTED": 31
  },
  {
    "COMPOUND": "COc1cccc(-c2nnc(NS(=O)(=O)[C@@H](C)[C@H](C)c3ncc(Cl)cn3)n2[C@@H](C)c2ncn(C)n2)n1 (single isomer, unassigned) [Example 237.0]",
    "REPORTED": 130
  },
  {
    "COMPOUND": "COCCn1c(NS(=O)(=O)[C@@H](C)[C@H](OC)c2ncc(Cl)cn2)nnc1-c1cccc(OC)n1 [Example 3.0]",
    "REPORTED": 2.8
  },
  {
    "COMPOUND": "CC[C@H](c1cc(F)cc(F)c1)n1c(NS(=O)(=O)[C@@H](C)[C@H](OC)c2ncc(Cl)cn2)nnc1-c1cccc(OC)n1 (single isomer, unassigned) [Example 342.0]",
    "REPORTED": 0.05
  },
  {
    "COMPOUND": "CC(C)O[C@@H](c1ncc(Cl)cn1)[C@H](C)S(=O)(=O)Nc1nnc(-c2ccccn2)n1C1CC1 [Example 127.0]",
    "REPORTED": 48
  },
  {
    "COMPOUND": "COc1cccc(-c2nnc(NS(=O)(=O)[C@@H](C)[C@@H](OC(C)C)c3ncc(C)cn3)n2[C@@H](C)[C@H]2CCCO2)n1 (single isomer, unassigned) [Example 276.0]",
    "REPORTED": 1.3
  },
  {
    "COMPOUND": "COC[C@@H](C)n1c(NS(=O)(=O)[C@@H](C)[C@H](OC)c2ncc(Cl)cn2)nnc1-c1cccnc1 [Example 125.0]",
    "REPORTED": 90
  },
  {
    "COMPOUND": "COCC1(n2c(NS(=O)(=O)[C@@H](C)[C@H](C)c3ncc(Cl)cn3)nnc2-c2cccnc2)CC1 [Example 68.0]",
    "REPORTED": 2.8
  },
  {
    "COMPOUND": "COc1cccc(-c2nnc(NS(=O)(=O)[C@@H](C)[C@H](OC)c3ncc(Cl)cn3)n2C2CC3(COC3)C2)n1 [Example 7.0]",
    "REPORTED": 240
  },
  {
    "COMPOUND": "COc1cccc(-c2nnc(NS(=O)(=O)[C@@H](C)[C@H](OC)c3ncc(Cl)cn3)n2[C@H](C)c2cncnc2)n1 (single isomer, unassigned) [Example 336.0]",
    "REPORTED": 15
  },
  {
    "COMPOUND": "COc1cccc(-c2nnc(NS(=O)(=O)[C@@H](C)[C@H](OC)c3ncc(Cl)cn3)n2C[C@H]2CCCO2)n1 (single isomer, unassigned) [Example 279.0]",
    "REPORTED": 75
  },
  {
    "COMPOUND": "COc1cccc(-c2nnc(NS(=O)(=O)[C@@H](C)[C@H](OC)c3cnc(C)cn3)n2Cc2cc(C)no2)n1 [Example 191.0]",
    "REPORTED": 390
  },
  {
    "COMPOUND": "COc1cccc(-c2nnc(NS(=O)(=O)[C@@H](C)[C@H](OC)c3ncc(Cl)cn3)n2CCSC)n1 [Example 26.0]",
    "REPORTED": 12
  },
  {
    "COMPOUND": "COc1cccc(-c2nnc(NS(=O)(=O)[C@@H](C)[C@H](OC)c3ncc(Cl)cn3)n2[C@@H](C)c2ncc(C)o2)n1 (single isomer, unassigned) [Example 255.0]",
    "REPORTED": 7.5
  },
  {
    "COMPOUND": "COc1cccc(-c2nnc(NS(=O)(=O)[C@@H](C)[C@@H](OC(C)C)c3ncc(C)cn3)n2C[C@H]2CCCCO2)n1 (single isomer, unassigned) [Example 301.0]",
    "REPORTED": 4.4
  },
  {
    "COMPOUND": "COc1cccc(-c2nnc(NS(=O)(=O)[C@@H](C)[C@H](OC)c3ncc(Cl)cn3)n2C[C@@H]2CCCOC2)n1 (racemic) [Example 311.0]",
    "REPORTED": 33
  },
  {
    "COMPOUND": "COc1cccc(-c2nnc(NS(=O)(=O)[C@@H](C)[C@H](OC)c3ncc(Cl)cn3)n2[C@@H]2CCC23CCC3)n1 (stereo in doubt) [Example 56.0]",
    "REPORTED": 1.9
  },
  {
    "COMPOUND": "CCc1noc(C)c1Cn1c(NS(=O)(=O)[C@@H](C)[C@H](C)c2ncc(Cl)cn2)nnc1-c1cccc(OC)n1 [Example 193.0]",
    "REPORTED": 430
  },
  {
    "COMPOUND": "COc1cccc(-c2nnc(NS(=O)(=O)[C@@H](C)[C@@H](OC(C)C)c3ncc(C)cn3)n2[C@H](C)[C@@H]2CCCCO2)n1 (single isomer, unassigned) [Example 323.0]",
    "REPORTED": 0.66
  },
  {
    "COMPOUND": "COc1cccc(-c2nnc(NS(=O)(=O)[C@@H](C)[C@H](C)c3ncc(Cl)cn3)n2C[C@H]2CCCO2)n1 (racemic) [Example 282.0]",
    "REPORTED": 54
  },
  {
    "COMPOUND": "COc1cccc(-c2nnc(NS(=O)(=O)[C@@H](C)[C@H](C)c3ncc(Cl)cn3)n2[C@@H](C)c2ncnn2C)n1 (single isomer, unassigned) [Example 250.0]",
    "REPORTED": 370
  },
  {
    "COMPOUND": "COc1cnc([C@@H](OC)[C@H](C)S(=O)(=O)Nc2nnc(-c3cccc(OC)n3)n2[C@H]2CC23CC3)cn1 (single isomer, unassigned) [Example 159.0]",
    "REPORTED": 550
  },
  {
    "COMPOUND": "COc1cccc(-c2nnc(NS(=O)(=O)[C@@H](C)[C@H](OC)c3ncc(Cl)cn3)n2C2CC2)n1 [Example 69.0]",
    "REPORTED": 0.89
  }
]
